target-entity: T1, mouse programmed cell death protein 1 Fc fusion protein (mPD-1-Fc), mPD-1 C60S (aa 25-167) (Mus musculus, UniProt Q02242, stabilised)
T1 construct: not cleaved; source: Expi293F, purified (Protein A, SEC; dimeric fraction); not shown: Fc (human), C-terminal, kept
assay-text: SPR; Carterra LSA; Fab from the ammonium sulfate precipitate of the culture supernatant immobilised on a NiHC200M chip; hPD-1 (1-1024 nM) or mPD-1-Fc (4-1024 nM) as analyte, fourfold dilution series, no regeneration; HBS-EP pH 7.4, 25 °C; medians over the spots of a construct, KD = koff/kon
recorded-conditions: one partner purified
I'd appreciate it if you could supply koff values for the items below.
Numbers only, in s⁻¹.

INSERT INTO results (binder, quantitative_result) VALUES
  ('toripalimab Fab L.H98A (Fab, V domains shown, as the heavy chain of Sm3; light chain of Sm3 with this change; numbers count from the chain''s first residue; source: Brevibacillus, culture supernatant (ammonium sulfate precipitate); not shown: 6xHis, C-terminal, kept; 6xHN, C-terminal, kept) VH: QGQLVQSGAEVKKPGASVKVSCKASGYTFTDYEMHWVRQAPIHGLEWIGVIESETGGTAYNQKFKGRVTITADKSTSTAYMELSSLRSEDTAVYYCAREGITTVATTYYWYFDVWGQGTTVTVSS VL: DVVMTQSPLSLPVTLGQPASISCRSSQSIVHSNGNTYLEWYLQKPGQSPQLLIYKVSNRFSGVPDRFSGSGSGTDFTLKISRVEAEDVGVYYCFQGSAVPLTFGQGTKLEIK', 0.00523);

Below: the item to evaluate.
Using the record for toripalimab Fab L.V99L (Fab, V domains shown, as the heavy chain of Sm3; light chain of Sm3 with this change; numbers count from the chain's first residue; source: Brevibacillus, culture supernatant (ammonium sulfate precipitate); not shown: 6xHis, C-terminal, kept; 6xHN, C-terminal, kept) VH: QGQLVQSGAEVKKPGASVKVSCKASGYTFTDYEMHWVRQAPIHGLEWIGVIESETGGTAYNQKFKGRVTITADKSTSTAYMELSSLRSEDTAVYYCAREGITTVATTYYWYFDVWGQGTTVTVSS VL: DVVMTQSPLSLPVTLGQPASISCRSSQSIVHSNGNTYLEWYLQKPGQSPQLLIYKVSNRFSGVPDRFSGSGSGTDFTLKISRVEAEDVGVYYCFQGSHLPLTFGQGTKLEIK , report its koff.
0.00629
